molecular target: α4β7 integrin on human cells (human, UniProt P13612 34-1032; P26010 20-798); assay: cell-based or functional assay
Bridge positions count the residues as written; N and C are the ends. Square brackets hold non-standard residues; d marks the D form. Ends that are not written are not given here. Phe(4-tBu) = CC(C)(C)c1ccc(C[C@H](N)C(=O)O)cc1; Bip = N[C@@H](Cc1ccc(-c2ccccc2)cc1)C(=O)O; 2Nal = N[C@@H](Cc1ccc2ccccc2c1)C(=O)O; NMeR = CN[C@@H](CCCNC(=N)N)C(=O)O; β3hE = N[C@@H](CCC(=O)O)CC(=O)O; NMeK = CN[C@@H](CCCCN)C(=O)O; Pen = CC(C)(S)[C@H](N)C(=O)O
Below: a set of entries, each annotated with reported α4β7 cell (Hu) IC50.
Property: α4β7 cell (Hu) IC50

- Ac-[Pen][NMeR]SDTL[Pen]WE[dK] (disulfide 1-7 (inferred); not fully specified (residue 10); printed as Ac-Pen-(N-Me-R)-S-D-T-L-Pen-W-E-k-Ac) [SEQ ID NO 65]: > 10000 nM
- Ac-[Pen][NMeR]SDTL[Pen][2Nal][dH][dK]-NH2 (disulfide 1-7 (inferred); also: homodimer via DIG) [SEQ ID NO 118]: > 25 nM
- Ac-[Pen][NMeR]SDTL[Pen][Bip]E[NMeK]-NH2 (disulfide 1-7 (inferred); also: homodimer via DIG) [SEQ ID NO 136]: ≤ 10 nM
- Ac-[Pen][NMeR]SDTL[Pen]W[BetaE][dK]-NH2 (disulfide 1-7 (inferred); also: dimer via DIG) [SEQ ID NO 1]: > 50 nM
- Ac-[Pen][NMeR]SQIQ[Pen][Phe(4-tBu)][β3hE][dK]-NH2 (disulfide 1-7 (inferred); also: homodimer via IDA) [SEQ ID NO 190]: > 100000 nM
- Ac-[dK]C[NMeR]SDTLCW[dK]-NH2 (disulfide 2-8 (inferred); also: dimer joined by DIG) [SEQ ID NO 4]: > 10 nM
- Ac-[Pen][NMeR]SDTL[Pen][Phe(4-tBu)][b‑H‑E][dK] (disulfide 1-7 (inferred); not fully specified (residue 10); also: palmitoyl (palmitoyl chloride) attached after k) [SEQ ID NO 172]: 965 nM
- Ac-[Pen][NMeR]SDTL[Pen]W[dY][dK]-NH2 (disulfide 1-7 (inferred); also: homodimer linked by DIG) [SEQ ID NO 92]: > 50 nM
- Ac-[Pen][NMeR]SDTQ[Pen][2Nal][dE]-NH2 (disulfide 1-7 (inferred)) [SEQ ID NO 163]: > 1000 nM
